Each recorded value in this set is attributed to ChEMBL document CHEMBL6121054.

System: Staphylococcus aureus
MEASUREMENT NOTES: Antibacterial activity against Staphylococcus aureus ATCC 25923 incubated for 16 to 24 hrs by broth microdilution method
Type: functional
ASSAY CONDITIONS: time 16-24 hrs

| MOLECULE SMILES | UNITS OF MEASURE | MIC |
| --- | --- | --- |
| CCn1c(=O)c(C(=O)Nc2nnc(-c3ccc(Br)cn3)s2)c(O)c2ccccc21 | µg/mL | 0.2 |
| CCn1c(=O)c(C(=O)Nc2nnc(-c3ccc(C(F)(F)F)cn3)s2)c(O)c2ccccc21 | µg/mL | 5.33 |
| CCn1c(=O)c(C(=O)Nc2nnc(-c3cc(C)ccn3)s2)c(O)c2ccccc21 | µg/mL | 0.15 |
| CCn1c(=O)c(C(=O)Nc2nnc(-c3cccc(C)n3)s2)c(O)c2ccccc21 | µg/mL | 0.04 |

====

Measured log10 of MIC by item
System: Staphylococcus aureus
MEASUREMENT NOTES: Antibacterial activity against Staphylococcus aureus ATCC 29213 incubated for 16 to 24 hrs by broth microdilution method
Type: functional
ASSAY CONDITIONS: time 16-24 hrs
QUANTITY: log10 of MIC (log10 of the value in µg/mL)

| COMPOUND | log10 of MIC |
| --- | --- |
| CN(C)c1cc(NC(=O)CNC(C)(C)C)c(O)c2c1C[C@H]1C[C@H]3[C@H](N(C)C)C(O)=C(C(N)=O)C(=O)[C@@]3(O)C(O)=C1C2=O | -1.00 |
| CCn1c(=O)c(C(=O)Nc2nnc(-c3cccc(C)n3)s2)c(O)c2ccccc21 | -0.70 |
| CCn1c(=O)c(C(=O)Nc2nnc(-c3ccc(F)cn3)s2)c(O)c2ccccc21 | -0.17 |
| CN[C@H](CC(C)C)C(=O)N[C@H]1C(=O)N[C@@H](CC(N)=O)C(=O)N[C@H]2C(=O)N[C@H]3C(=O)N[C@H](C(=O)N[C@H](C(=O)O)c4cc(O)cc(O)c4-c4cc3ccc4O)[C@H](O)c3ccc(c(Cl)c3)Oc3cc2cc(c3O[C@@H]2O[C@H](CO)[C@@H](O)[C@H](O)[C@H]2O[C@H]2C[C@](C)(N)[C@H](O)[C@H](C)O2)Oc2ccc(cc2Cl)[C@H]1O | 0.23 |
| CCn1c(=O)c(C(=O)Nc2nnc(-c3ccc(C)cn3)s2)c(O)c2ccccc21 | -1.52 |
| CC1(C)S[C@H]([C@H](NC(=O)Cc2ccccc2)C(=O)NCc2ccccc2)N[C@H]1C(=O)N[C@H](Cc1ccccc1)[C@H](O)CC(=O)NCc1nc2ccccc2[nH]1 | -0.20 |
| CNC(C)[C@@H]1CC[C@@H](N)[C@@H](O[C@H]2[C@H](O)[C@@H](O[C@H]3OC[C@](C)(O)[C@H](NC)[C@H]3O)[C@H](N)C[C@@H]2N)O1.CN[C@@H]1[C@@H](O)[C@@H](O[C@@H]2[C@@H](O)[C@H](O[C@H]3O[C@H](C(C)N)CC[C@H]3N)[C@@H](N)C[C@H]2N)OC[C@]1(C)O.CN[C@@H]1[C@@H](O)[C@@H](O[C@@H]2[C@@H](O)[C@H](O[C@H]3O[C@H](CN)CC[C@H]3N)[C@@H](N)C[C@H]2N)OC[C@]1(C)O (some centres not stated) | 0.48 |
| CCn1c(=O)c(C(=O)Nc2nnc(-c3ccc(Br)cn3)s2)c(O)c2ccccc21 | 0.05 |
| CCn1c(=O)c(C(=O)Nc2nnc(-c3cc(C)ccn3)s2)c(O)c2ccccc21 | -0.74 |
| CCn1c(=O)c(C(=O)Nc2nnc(-c3ncccc3F)s2)c(O)c2ccccc21 | -0.85 |
